- TEST_PROTOCOL: Tolerability in Sprague-Dawley rats: body weight and organ weight (Example 44)
- Assay type: in vivo
- CONDITION_SET: 50 mg/kg s.c. twice per week for 6 weeks, end of study
Strand notation (5' to 3'): a small letter for the sugar, then the base; units joined by * are phosphorothioate-linked, units joined directly phosphodiester-linked; [ ] holds rarer units or linkages, { } end groups; capitals alone tell only the bases. e = 2'-O-(2-methoxyethyl) (MOE); [5mC] = 5-methylcytosine; d = 2'-deoxy (DNA)
REPORTED_PROPERTY: Change in Spleen weight

Field Change in Spleen weight (entry ISIS 449710: 3-8-3, 4-8-4, 2-10-2, 3-10-3 or 4-10-4 MOE microwalk gapmer (Table 46) (antisense e[5mC]*eA*e[5mC]*dA*dG*dT*dT*dT*d[5mC]*dT*dG*dG*d[5mC]*eA*eG*eG) ) reads +302%

----------
- TEST_PROTOCOL: Hematology assays in cynomolgus monkeys (Example 45)
- Assay type: in vivo
- CONDITION_SET: day 43
REPORTED_PROPERTY: reticulocytes (%)
Give the quantity in %, number only.

Worked examples follow.
{"SUBSTANCE": "ISIS 416850: MOE gapmer, nucleobases 1275 to 1318 of SEQ ID NO: 1 (Table 8) (antisense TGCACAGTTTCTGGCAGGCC; MOE gapmer, wing and gap sizes not given here)", "UNIT_SPEC": "%", "REPORTED_MEASUREMENT": 1.6}
{"SUBSTANCE": "ISIS 417002: MOE gapmer, nucleobases 1275 to 1318 of SEQ ID NO: 1 (Table 8) (antisense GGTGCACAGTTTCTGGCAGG; MOE gapmer, wing and gap sizes not given here)", "UNIT_SPEC": "%", "REPORTED_MEASUREMENT": 1.1}

// switching to the query substance
# substance ISIS 416838: MOE gapmer, nucleobases 1018 to 1042 of SEQ ID NO: 1 (Table 6) (antisense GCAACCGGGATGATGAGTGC; MOE gapmer, wing and gap sizes not given here) ; its reticulocytes = 1.2

----------
- Tested on: human Factor 11 mRNA
- TEST_PROTOCOL: Antisense inhibition of human Factor 11 in HepG2 cells, lipofectin, 75 nM (Example 1)
- Type: cell-based
- CONDITION_SET: 75 nM antisense oligonucleotide, ~24 h, relative to untreated control cells, gapmers targeted to SEQ ID NO: 1
Strand notation (5' to 3'): a small letter for the sugar, then the base; units joined by * are phosphorothioate-linked, units joined directly phosphodiester-linked; [ ] holds rarer units or linkages, { } end groups; capitals alone tell only the bases. e = 2'-O-(2-methoxyethyl) (MOE); [5mC] = 5-methylcytosine; d = 2'-deoxy (DNA)
Entry flag: y if % inhibition reaches 70%; n if it does not.

{"SUBSTANCE": "412239 (antisense eT*eT*e[5mC]*eA*eG*dA*dT*dT*dG*dA*dT*dT*dT*dA*dA*eA*eA*eT*eG*e[5mC]) [compound 412239]", "CLASS_NAME": "n"}
{"SUBSTANCE": "412220 (antisense eT*eG*eG*eT*eA*dA*dA*dA*dT*dG*dA*dA*dG*dA*dA*eT*eG*eG*e[5mC]*eA) [compound 412220]", "CLASS_NAME": "n"}
{"SUBSTANCE": "413483 (antisense eA*eA*e[5mC]*eT*eG*dG*d[5mC]*dA*dG*d[5mC]*dG*dG*dA*d[5mC]*dG*eG*e[5mC]*eA*eT*eT) [compound 413483]", "CLASS_NAME": "y"}
{"SUBSTANCE": "412259 (antisense eT*eT*eT*eT*e[5mC]*dA*dG*dG*dA*dA*dA*dG*dT*dG*dT*eA*eT*e[5mC]*eT*eT) [compound 412259]", "CLASS_NAME": "n"}
{"SUBSTANCE": "412200 (antisense eA*eA*eG*eA*eA*dT*dA*d[5mC]*d[5mC]*d[5mC]*dA*dG*dA*dA*dA*eT*e[5mC]*eG*e[5mC]*eT) [compound 412200]", "CLASS_NAME": "n"}
{"SUBSTANCE": "413484 (antisense e[5mC]*e[5mC]*eT*eT*eA*dA*dT*dG*dT*dG*dT*dA*dT*d[5mC]*d[5mC]*eA*eG*eA*eG*eA) [compound 413484]", "CLASS_NAME": "y"}
{"SUBSTANCE": "413466 (antisense eA*e[5mC]*eA*eT*eA*dA*dA*dT*dG*dT*d[5mC]*dT*dT*dT*dG*eT*eT*eG*e[5mC]*eA) [compound 413466]", "CLASS_NAME": "y"}
{"SUBSTANCE": "413493 (antisense eT*eT*eT*e[5mC]*eT*dT*dG*dA*dA*d[5mC]*d[5mC]*d[5mC]*d[5mC]*dA*dA*eA*eG*eA*eA*eA) [compound 413493]", "CLASS_NAME": "n"}
{"SUBSTANCE": "412191 (antisense eT*eT*eA*eA*eA*dA*dT*d[5mC]*dT*dT*dA*dG*dT*dA*dT*eG*eT*e[5mC]*eA*eG) [compound 412191]", "CLASS_NAME": "n"}
{"SUBSTANCE": "412235 (antisense eA*eT*eA*eT*e[5mC]*d[5mC]*dA*d[5mC]*dT*dG*dG*dT*dT*dT*d[5mC]*e[5mC]*eA*eA*eT*eG) [compound 412235]", "CLASS_NAME": "n"}

**Query** In plain terms: is recorded % inhibition at least 70% for 412196 (antisense eT*eG*eA*eT*eA*dT*dA*dA*dG*dA*dA*dA*dA*dT*d[5mC]*eA*eT*e[5mC]*e[5mC]*eT) [compound 412196] ?
**Result** n

**Query** Hi, just wondering whether 413478 (antisense eA*eG*eA*eA*eT*dG*dG*d[5mC]*dA*dG*dA*dA*d[5mC]*dA*d[5mC]*eT*eG*eG*eG*eA) [compound 413478] shows % inhibition of 70% or higher.
**Result** n

**Query** Does the substance 412190 (antisense eA*eG*eT*eA*eT*dG*dT*d[5mC]*dA*dG*dA*dA*dA*dT*dA*eT*eA*e[5mC]*e[5mC]*eT) [compound 412190] have recorded % inhibition that is 70% or more?
**Result** n

----------
- Test system: human Factor 11 mRNA
- TEST_PROTOCOL: Antisense inhibition of human Factor 11 in HepG2 cells, lipofectin, 75 nM (Example 1)
- Assay type: cell-based
- CONDITION_SET: 75 nM antisense oligonucleotide, ~24 h, relative to untreated control cells, gapmers targeted to SEQ ID NO: 1
Strand notation (5' to 3'): a small letter for the sugar, then the base; units joined by * are phosphorothioate-linked, units joined directly phosphodiester-linked; [ ] holds rarer units or linkages, { } end groups; capitals alone tell only the bases. e = 2'-O-(2-methoxyethyl) (MOE); [5mC] = 5-methylcytosine; d = 2'-deoxy (DNA)
Cut-off 40% on % inhibition, inclusive. At or above means condition met; below means condition not met.

{"SUBSTANCE": "412258 (antisense eG*eT*eG*eT*eA*dG*dA*dT*dT*d[5mC]*d[5mC]*dT*dG*d[5mC]*dA*eA*eA*eA*eT*eG) [compound 412258]", "CLASS_NAME": "condition met"}
{"SUBSTANCE": "412254 (antisense eT*eA*eT*e[5mC]*eT*dG*d[5mC]*d[5mC]*dT*dA*dT*dA*dT*dA*dG*eT*eA*eA*eT*e[5mC]) [compound 412254]", "CLASS_NAME": "condition not met"}
{"SUBSTANCE": "413470 (antisense eG*eT*eT*eA*eT*dA*dG*dT*dT*dT*dA*dT*dG*d[5mC]*d[5mC]*e[5mC]*eT*eT*e[5mC]*eA) [compound 413470]", "CLASS_NAME": "condition met"}
{"SUBSTANCE": "413487 (antisense eA*eA*e[5mC]*eG*eA*dT*d[5mC]*d[5mC]*dT*dG*dG*dG*d[5mC]*dT*dT*eG*eA*eT*eT*eT) [compound 413487]", "CLASS_NAME": "condition met"}

Then this substance:
**Query** # bool: % inhibition of 412193 (antisense eT*eG*eT*eG*eT*dA*dG*dG*dA*dA*dA*dT*dG*dG*dT*e[5mC]*eA*e[5mC]*eT*eT) [compound 412193] >= 40%
**Result** condition not met

----------
Form field: aPTT ratio (INR) (one value per entry).
- System: blood coagulation
- TEST_PROTOCOL: PT and aPTT assay in cynomolgus monkeys (Example 45)
- Format: in vivo
- CONDITION_SET: day 64; escalating dose regimen; platelet poor plasma

Here are 4 substances together with their reported answers.
{"SUBSTANCE": "ISIS 416838: MOE gapmer, nucleobases 1018 to 1042 of SEQ ID NO: 1 (Table 6) (antisense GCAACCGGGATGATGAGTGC; MOE gapmer, wing and gap sizes not given here)", "REPORTED_MEASUREMENT": 1.18}
{"SUBSTANCE": "ISIS 416850: MOE gapmer, nucleobases 1275 to 1318 of SEQ ID NO: 1 (Table 8) (antisense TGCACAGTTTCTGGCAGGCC; MOE gapmer, wing and gap sizes not given here)", "REPORTED_MEASUREMENT": 1.64}
{"SUBSTANCE": "ISIS 416858: MOE gapmer, nucleobases 1275 to 1318 of SEQ ID NO: 1 (Table 8) (antisense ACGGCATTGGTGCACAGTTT; MOE gapmer, wing and gap sizes not given here)", "REPORTED_MEASUREMENT": 1.60}
{"SUBSTANCE": "ISIS 417002: MOE gapmer, nucleobases 1275 to 1318 of SEQ ID NO: 1 (Table 8) (antisense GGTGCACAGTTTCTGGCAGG; MOE gapmer, wing and gap sizes not given here)", "REPORTED_MEASUREMENT": 1.11}

For record ISIS 416864: MOE gapmer, nucleobases 1275 to 1318 of SEQ ID NO: 1 (Table 8) (antisense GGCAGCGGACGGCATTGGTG; MOE gapmer, wing and gap sizes not given here) the listed aPTT ratio (INR) is 1.12

Provenance of the data: patent US20230263822A1
